Each entry below carries its reported inhibition at 25 µM.
# target-or-system: hT2R9 (Homo sapiens (Human), UniProt Q9NYW1)
# Sequence (Q9NYW1 whole entry): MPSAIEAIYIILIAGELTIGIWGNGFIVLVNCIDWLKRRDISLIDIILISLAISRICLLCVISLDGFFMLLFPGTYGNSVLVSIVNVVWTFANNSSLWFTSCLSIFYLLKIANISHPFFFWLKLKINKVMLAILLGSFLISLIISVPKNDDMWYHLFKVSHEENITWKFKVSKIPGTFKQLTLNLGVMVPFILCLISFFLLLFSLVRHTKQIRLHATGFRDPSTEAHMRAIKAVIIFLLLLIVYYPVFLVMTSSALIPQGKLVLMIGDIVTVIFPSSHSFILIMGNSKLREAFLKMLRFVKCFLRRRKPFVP
# measurement-description: hT2R panel inhibition, transient HEK293 G16g44, agonist Ofloxacin 1 mM
# Type: cell-based
# experimental-conditions: HEK293, compound at 25 μM; receptor activated to EC80 with the corresponding agonist; read-out: screening result against bitter receptor 9

Some compounds with recorded inhibition at 25 µM:
[[record]]
chem_smiles = "COc1ccc(CN(Cc2cccc(OC)c2)S(=O)(=O)c2ccc(C(=O)O)cc2)cc1"
target_or_system = "hT2R9 (Homo sapiens (Human), UniProt Q9NYW1)"
value_observed = "20 to 40%"

[[record]]
chem_smiles = "COc1ccc(CN(Cc2ccccc2)S(=O)(=O)c2ccc(C(=O)O)cc2)c(OC)c1"
target_or_system = "hT2R9 (Homo sapiens (Human), UniProt Q9NYW1)"
value_observed = "20 to 40%"

[[record]]
chem_smiles = "O=C(O)c1ccc(CN(Cc2cccc(F)c2)S(=O)(=O)c2ccccc2)cc1"
target_or_system = "hT2R9 (Homo sapiens (Human), UniProt Q9NYW1)"
value_observed = "20 to 40%"


Please find the next compound below.
IN: Any idea what inhibition at 25 µM was measured for O=C(O)c1ccc(S(=O)(=O)N(Cc2ccccc2)Cc2cccc(C(=O)O)c2)cc1 ?
OUT: 20 to 40%
